Data provenance: patent US20240209053A1

- system-name: human ferroportin (SLC40A1) (Homo sapiens, UniProt Q9NP59)
- procedure-details: FPN activity assay: internalization/degradation of ferroportin-GFP in stably transfected HEK293 cells (decrease in GFP fluorescence)
- condition-notes: compound incubated at least 18 hours
Numbered stars: 1 amine (or outer) side, 2 acyl side, 3 side chain; on linkers, the order of the positions; unused ones are H or OH. Bridge positions count the residues as written; N and C are the ends. Square brackets hold non-standard residues; d marks the D form. Side chains are listed from the residue outwards. Peptide text beside a SMILES is read from it. * marks the point of attachment. Dip = N[C@H](C(=O)O)C(c1ccccc1)c1ccccc1; Hag = O=C([C@H](CCC=[*:3])N[*:1])[*:2]; Palmitoyl = CCCCCCCCCCCCCCCC(=O)*; β3hF = N[C@H](CC(=O)O)Cc1ccccc1; Isovaleryl = CC(C)CC(=O)*; Ahx = NCCCCCC(=O)O
Listing: IC50 of selected compounds

The compound CCCCCCCCCCCCCCCC(=O)NCCCCCC(=O)NCCCC[C@H](NC(=O)C[C@H](Cc1ccccc1)NC(=O)[C@@H]1CCC=CCC[C@H](NC(=O)CC(C)C)C(=O)N[C@@H]([C@@H](C)O)C(=O)N[C@@H](C)C(=O)N[C@@H](C(c2ccccc2)c2ccccc2)C(=O)N2CCC[C@H]2C(=O)N[C@@H](C)C(=O)N[C@@H]([C@@H](C)CC)C(=O)N1)C(=O)N[C@H](CCCCN)C(N)=O [Compd 42] (Isovaleryl-[Hag]TA[Dip]PAI[Hag][β3hF]K([Ahx-Palmitoyl])[dK]-NH2; staple 1-8) on human ferroportin (SLC40A1) (Homo sapiens, UniProt Q9NP59): IC50 was 0.1 to 0.5 µM

====

- system-name: UniProt:Q9NP59
- procedure-details: FPN activity assay: internalization/degradation of ferroportin-GFP in stably transfected HEK293 cells (decrease in GFP fluorescence)
- condition-notes: compound incubated at least 18 hours
quantity-name: IC50

Below: 4 compounds and their reported IC50.
compound: CCCCCCCCCCCCCCCC(=O)NCCCCCC(=O)NCCCC[C@H](NC(=O)C[C@H](Cc1ccccc1)NC(=O)[C@@H]1CCC=CC[C@H](NC(=O)CC(C)C)C(=O)N[C@@H]([C@@H](C)O)C(=O)N[C@@H](Cc2c[nH]cn2)C(=O)N[C@@H](C(c2ccccc2)c2ccccc2)C(=O)N2CCC[C@H]2C(=O)N[C@@H](C)C(=O)N[C@@H]([C@@H](C)CC)C(=O)N1)C(=O)N[C@@H](CCCNC(=N)N)C(N)=O
system-name: UniProt:Q9NP59
IC50: 10 to 100 nM

compound: CCCCCCCCCCCCCCCC(=O)NCCCCCC(=O)NCCCC[C@H](NC(=O)C[C@H](Cc1ccccc1)NC(=O)[C@H]1CCCC=CCCC[C@H](NC(=O)CC(C)C)C(=O)N[C@@H]([C@@H](C)O)C(=O)N[C@@H](Cc2c[nH]cn2)C(=O)N[C@@H](C(c2ccccc2)c2ccccc2)C(=O)N2CCC[C@H]2C(=O)N[C@@H](C)C(=O)N[C@@H]([C@@H](C)CC)C(=O)N1)C(=O)N[C@H](CCCCN)C(N)=O
system-name: UniProt:Q9NP59
IC50: 1 to 10 nM

compound: CCCCCCCCCCCCCCCC(=O)NCCCCCC(=O)NCCCC[C@H](NC(=O)C[C@H](Cc1ccccc1)NC(=O)[C@@H]1CCC=CCC[C@H](NC(=O)CC(C)C)C(=O)N[C@@H]([C@@H](C)O)C(=O)N[C@@H](Cc2c[nH]cn2)C(=O)N[C@@H](C(c2ccccc2)c2ccccc2)C(=O)N2CCC[C@H]2C(=O)N[C@@H](C)C(=O)N[C@@H]([C@@H](C)CC)C(=O)N1)C(=O)N[C@H](CCCCN)C(N)=O [Peptide ID #16]
system-name: UniProt:Q9NP59
IC50: 1 to 10 nM

compound: CCCCCCCCCCCCCCCC(=O)NCCCCCC(=O)NCCCC[C@H](NC(=O)C[C@H](Cc1ccccc1)NC(=O)[C@@H]1CCC=CCC[C@H](NC(=O)CC(C)C)C(=O)N[C@@H]([C@@H](C)O)C(=O)N[C@@H](Cc2c[nH]cn2)C(=O)N[C@@H](C(c2ccccc2)c2ccccc2)C(=O)N2CCC[C@H]2C(=O)N[C@@H](C)C(=O)N[C@@H]([C@@H](C)CC)C(=O)N1)C(N)=O
system-name: UniProt:Q9NP59
IC50: 10 to 100 nM

For the next question, use this compound.
The compound `CCCCCCCCCCCCCCCC(=O)NCCCCCC(=O)NCCCC[C@H](NC(=O)C[C@H](Cc1ccccc1)NC(=O)[C@H]1CCCC=CCCC[C@@H](NC(=O)CC(C)C)C(=O)N[C@@H]([C@@H](C)O)C(=O)N[C@@H](Cc2c[nH]cn2)C(=O)N[C@@H](C(c2ccccc2)c2ccccc2)C(=O)N2CCC[C@H]2C(=O)N[C@@H](C)C(=O)N[C@@H]([C@@H](C)CC)C(=O)N1)C(=O)N[C@H](CCCCN)C(N)=O` on UniProt:Q9NP59: IC50 was 100 to 500 nM

====

Listing: pIC50 of selected compounds
- system-name: ferroportin (Homo sapiens, UniProt Q9NP59)
- Sequence (Q9NP59 whole entry): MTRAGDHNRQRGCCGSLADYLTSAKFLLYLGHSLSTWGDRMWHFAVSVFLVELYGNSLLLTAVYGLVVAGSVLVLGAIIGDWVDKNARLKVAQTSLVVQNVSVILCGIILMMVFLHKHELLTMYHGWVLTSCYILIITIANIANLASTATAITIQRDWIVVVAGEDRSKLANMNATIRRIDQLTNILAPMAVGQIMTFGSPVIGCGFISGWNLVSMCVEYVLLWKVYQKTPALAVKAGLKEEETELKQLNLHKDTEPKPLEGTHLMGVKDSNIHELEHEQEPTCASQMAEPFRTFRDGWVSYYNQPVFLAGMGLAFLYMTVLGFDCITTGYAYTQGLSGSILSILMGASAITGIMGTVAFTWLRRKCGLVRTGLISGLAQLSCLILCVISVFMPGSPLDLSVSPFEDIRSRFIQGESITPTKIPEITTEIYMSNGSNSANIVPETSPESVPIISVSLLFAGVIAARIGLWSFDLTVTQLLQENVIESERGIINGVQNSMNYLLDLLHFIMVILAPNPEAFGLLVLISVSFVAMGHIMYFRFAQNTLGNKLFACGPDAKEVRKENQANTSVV
- procedure-details: T47D cell-based ferroportin internalization assay in presence of 0.5% mouse serum albumin (MSA)
- condition-notes: T47D cells
pIC50: −log10 of the molar value.

Below: 5 compounds and their reported pIC50.
compound: CCCCCCCCCCCCCCCC(=O)NCCCCCC(=O)NCCCC[C@H](NC(=O)C[C@H](Cc1ccccc1)NC(=O)[C@H]1CCC=CCC[C@H](NC(=O)CC(C)C)C(=O)N[C@@H]([C@@H](C)O)C(=O)N[C@@H](Cc2c[nH]cn2)C(=O)N[C@@H](C(c2ccccc2)c2ccccc2)C(=O)N2CCC[C@H]2C(=O)N[C@@H](C)C(=O)N[C@@H]([C@@H](C)CC)C(=O)N1)C(=O)N[C@H](CCCCN)C(N)=O
test-value: 7.00 to 8.00
//
compound: CCCCCCCCCCCCCCCC(=O)NCCCCCC(=O)NCCCC[C@@H]1NC(=O)[C@@H]2CCCN2C(=O)[C@H](C(c2ccccc2)c2ccccc2)NC(=O)[C@H](Cc2c[nH]cn2)NC(=O)[C@H]([C@@H](C)O)NC(=O)[C@@H](NC(=O)CC(C)C)CCCC=CCCC[C@@H](C(=O)N[C@H](CC(=O)N[C@H](CCCCN)C(N)=O)Cc2ccccc2)NC(=O)[C@H]([C@@H](C)CC)NC1=O
test-value: 8.00 to 9.00
//
compound: CCCCCCCCCCCCCCCC(=O)NCCCCCC(=O)NCCCC[C@H](NC(=O)C[C@H](Cc1ccccc1)NC(=O)[C@@H]1CCC=CCC[C@H](NC(=O)CC(C)C)C(=O)N(C)[C@@H]([C@@H](C)O)C(=O)N[C@@H](Cc2c[nH]cn2)C(=O)N[C@@H](C(c2ccccc2)c2ccccc2)C(=O)N2CCC[C@H]2C(=O)N[C@@H](C)C(=O)N[C@@H]([C@@H](C)CC)C(=O)N1)C(=O)N[C@H](CCCCN)C(N)=O
test-value: 6.30 to 7.00
//
compound: CCCCCCCCCCCCCCCC(=O)NCCCCCC(=O)NCCCC[C@@H]1NC(=O)[C@H](C)NC(=O)[C@@H]2CCCN2C(=O)[C@H](C(c2ccccc2)c2ccccc2)NC(=O)[C@H](Cc2c[nH]cn2)NC(=O)[C@H]([C@@H](C)O)NC(=O)[C@@H](NC(=O)CC(C)C)CCCC=CCCC[C@@H](C(=O)N[C@H](CC(=O)N[C@H](CCCCN)C(N)=O)Cc2ccccc2)NC1=O
test-value: 8.00 to 9.00
//
compound: CCCCCCCCCCCCCCCC(=O)NCCCCCC(=O)NCCCC[C@H](NC(=O)C[C@H](Cc1ccccc1)NC(=O)[C@@H]1CCC=CCC[C@H](NC(=O)CC(C)C)C(=O)N[C@@H]([C@@H](C)O)C(=O)N(C)[C@@H](Cc2c[nH]cn2)C(=O)N[C@@H](C(c2ccccc2)c2ccccc2)C(=O)N2CCC[C@H]2C(=O)N[C@@H](C)C(=O)N[C@@H]([C@@H](C)CC)C(=O)N1)C(=O)N[C@H](CCCCN)C(N)=O
test-value: < 6.30

Form field pIC50, entry `CCCCCCCCCCCCCCCC(=O)NCCCCCC(=O)NCCCC[C@H](NC(=O)C[C@H](Cc1ccccc1)NC(=O)[C@@H]1CCCC=CCCC[C@@H](NC(=O)CC(C)C)C(=O)N[C@@H]([C@@H](C)O)C(=O)N[C@@H](Cc2c[nH]cn2)C(=O)N[C@@H](C(c2ccccc2)c2ccccc2)C(=O)N2CCC[C@H]2C(=O)N[C@@H](C)C(=O)N[C@@H]([C@@H](C)CC)C(=O)N1)C(=O)N[C@H](CCCCN)C(N)=O` : 8.00 to 9.00

Form field pIC50, entry `CCCCCCCCCCCCCCCC(=O)NCCCCCC(=O)NCCCC[C@H](NC(=O)C[C@H](Cc1ccccc1)NC(=O)[C@@H]1CCC=CCCC[C@@H](NC(=O)CC(C)C)C(=O)N[C@@H]([C@@H](C)O)C(=O)N[C@@H](Cc2c[nH]cn2)C(=O)N[C@@H](C(c2ccccc2)c2ccccc2)C(=O)N2CCC[C@H]2C(=O)N[C@@H](C)C(=O)N[C@@H]([C@@H](C)CC)C(=O)N1)C(=O)N[C@H](CCCCN)C(N)=O` : < 6.30
